// provenance: patent US20140155376A1

- targetDesc: JAK3 (recombinant human kinase domain; h-jak3(810-1124)) (Homo sapiens)
- Construct: h-jak3(810- 1124)-sf9-c; made in house; host or cells: Sf9 insect cells
- testDetails: Determination of IC50 of Janus Kinase (JAK) inhibition: JAK3, radioactive end-point assay with 33P-ATP
- Assay type: biochemical
- experimentalContext: JAK3 kinase domain; ATP 1.5 uM, peptide 50 uM, 20 minutes, room temperature, 10% DMSO; read-out: Ic50 h-jak3(810-1124)-sf9-c:no additive
pIC50: −log10 of the molar value.
Just so you know, the groups by pIC50 go like this: lo = under 7, mid = from 7 up to 8, hi = 8 and over

Completed entries (count: 6):
>>> classlabel("COc1ccccc1CNC(=O)c1ccc(-c2cnc3[nH]cc(C(=O)N[C@@H](C)C(C)(C)C)c3n2)s1")
"hi"
>>> classlabel("C[C@H](NC(=O)c1c[nH]c2ncc(-c3ccc(C(=O)N4CCS(=O)(=O)CC4)s3)nc12)C(C)(C)C")
"hi"
>>> classlabel("CC(=O)N[C@@H]1CCc2ccc(Oc3cnc4[nH]cc(C(=O)N[C@@H](C)C(C)(C)C)c4n3)cc21")
"mid"
>>> classlabel("CC[C@H](CO)NC(=O)c1c[nH]c2ncc(C3CC3)nc12")
"mid"
>>> classlabel("CC(C)NC(=O)c1c[nH]c2ncc(Oc3cccc(Cl)c3)nc12")
"lo"
>>> classlabel("CC(C)(CO)CNC(=O)c1c[nH]c2ncc(N3CCCC3)nc12")
"mid"

Band for the recorded pIC50 of CC(C)(CO)CNC(=O)c1c[nH]c2ncc(C(F)(F)F)nc12 ?
lo

Band for the recorded pIC50 of CCNC(=O)c1c[nH]c2ncc(Oc3cccc(C)c3)nc12 ?
lo

Band for the recorded pIC50 of CCNC(=O)c1c[nH]c2ncc(Oc3cc(OC)cc(OC)c3)nc12 ?
lo

Band for the recorded pIC50 of C[C@H](NC(=O)c1c[nH]c2ncc(-c3ccc(C(=O)NCCS(N)(=O)=O)s3)nc12)C(C)(C)C ?
hi

Band for the recorded pIC50 of COCC(C)NC(=O)c1c[nH]c2ncc(C3CC3)nc12 (centres unmarked) ?
mid

Band for the recorded pIC50 of CC(C)NC(=O)c1ccc(-c2cnc3[nH]cc(C(=O)N[C@@H](C)C(C)(C)C)c3n2)s1 ?
hi

Band for the recorded pIC50 of Cc1cc(-c2cnc3[nH]cc(C(=O)N[C@@H](C)C(C)(C)C)c3n2)sc1C(=O)N1CC(CO)(CO)C1 ?
hi

====

- targetDesc: JAK3 (recombinant human kinase domain; h-jak3(810-1124)) (Homo sapiens, UniProt P52333)
- Construct: h-jak3(810- 1124)-sf9-c; made in house; host or cells: Sf9 insect cells
- Sequence (P52333 810-1124): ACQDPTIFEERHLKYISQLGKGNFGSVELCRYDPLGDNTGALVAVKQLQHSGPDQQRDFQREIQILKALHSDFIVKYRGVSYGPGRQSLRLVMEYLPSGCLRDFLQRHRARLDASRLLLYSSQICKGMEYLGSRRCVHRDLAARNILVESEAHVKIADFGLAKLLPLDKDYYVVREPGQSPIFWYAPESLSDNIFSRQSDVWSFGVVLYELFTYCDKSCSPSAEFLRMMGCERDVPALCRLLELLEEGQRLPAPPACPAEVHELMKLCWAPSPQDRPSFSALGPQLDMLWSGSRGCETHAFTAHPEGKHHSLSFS
- testDetails: Determination of IC50 of Janus Kinase (JAK) inhibition: JAK3, radioactive end-point assay with 33P-ATP
- Type: biochemical
- experimentalContext: JAK3 kinase domain; ATP 1.5 uM, peptide 50 uM, 20 minutes, room temperature, 10% DMSO; read-out: Ic50 h-jak3(810-1124)-sf9-c:no additive
# IC50 annotations

>>> endpointresult("CC(C)NC(=O)c1c[nH]c2ncc(Oc3ccccc3OC(F)(F)F)nc12")
"2170 nM"
>>> endpointresult("CC(NC(=O)c1c[nH]c2ncc(Oc3ccccc3F)nc12)C1CC1 (centres unmarked)")
"63.4 nM"
>>> endpointresult("CC(C)NC(=O)c1c[nH]c2ncc(Oc3ccc4c(c3)[C@@H](N)CC4)nc12")
"533 nM"
>>> endpointresult("C[C@@H](NC(=O)c1c[nH]c2ncc(C#N)nc12)C(C)(C)O")
"3300 nM"
>>> endpointresult("Cc1cc(-c2cnc3[nH]cc(C(=O)N[C@@H](C)C(C)(C)C)c3n2)sc1C(=O)NC1CCOCC1")
"0.24 nM"
>>> endpointresult("CC(C)NC(=O)c1c[nH]c2ncc(Oc3ccc4c(c3)[C@@H](O)CC4)nc12")
"155 nM"
>>> endpointresult("CC[C@@](C)(O)[C@@H](C)NC(=O)c1c[nH]c2ncc(C3CC3)nc12")
"47.2 nM"

Moving on to another molecule below.
Give recorded IC50. CC[C@@](C)(O)[C@H](C)NC(=O)c1c[nH]c2ncc(C3CC3)nc12
36.4 nM
